target: SARS-CoV-2 HR2 peptide (SARS-CoV-2), P0DTC2; assay: peptide ELISA
Property name: EC50 (µg/mL)

INSERT INTO measurements (binder, property_name, endpoint_value) VALUES
  ('hr2.090 (antibody, V domains shown) VH: EVQLLESGGGLVQPGGSLRLSCAASGVTFSRYAMSWVRQAPGKGLEWVSTISGGGGGTYYADSVKGRFTISRDNSKNTLYLQMNSLRAEDTAVYYCATLLTVPGPYYFEYWGQGTLVTVSS VL: EIVLTQSPGTLSLSPGERATLSCRASQSVSSSYLAWYQQKPGQAPRLLIYGASSRATGIPDRFSGSGSGTDFTLTISRLESEDFAVYYCQHSRFTFGPGTRVDIK', 'EC50', 0.085),
  ('hr2.013 (antibody, V domains shown) VH: QVQLVQSGAEVKKPGASVKISCKASGYTFTNNYMNWVRQAPGQGLEWMGIIKPSSGSTIYAHKFQGRVTMTRDTSTSTVYMEVRSLTSEDTAVYYCARDQDHGLQNWGQGTLVTVSS VL: QSVLTQPPSVSAASGQKVTIYCSGSSSNIASNFVSWYQQFPGTAPKLLIYDNNQRPSGIPDRFSGSRSGTSATLGITGLQTGDEADYYCGTWDTSLGAWVFGGGTKLTVL', 'EC50', 0.0317),
  ('hr2.021 (antibody, V domains shown) VH: QVQLVQSGAEVKKPGASVKVSCKASEAIFSGSYLHWVRQAPGQGLEWMGIITPSGDKTFYAQRFQGRLTMTRDTSTNTLHMHLSGLNSEDTAMYYCARQADKGGWDYWGQGTLVTVSS VL: EIVLTQSPGTLSLSPGERATLSCRASQSVTSNYVAWYQQKPGQAPRLLIYGASTRATGIPDRFSGGGSGTDFTLTITRLEPEDFAVYYCQQYGSSPPTFTFGPGTKVDIK', 'EC50', 0.0242),
  ('hr2.015 (antibody, V domains shown) VH: QVQLVQSGAEVKKPGASVKVSCKASGYTFSSYYVNWVRQAPGQGLEWLGIINRSGSSTIYAQKFQGRVTMTRDTSTSTVYLELSSLRSEDTAVYYCARDQDHALHWGQGTLVTVSS VL: QSVLTQPPSVSAAPGQKVTISCSGSSSNIGSNYVSWYQQLPGTAPKLLIYDNSERPSGIPDRFSGSRSGTSATLGITGLQTGDEADYYCGTWDTSLSAWVFGGGTKLTVL', 'EC50', 0.047),
  ('hr2.012 (antibody, V domains shown) VH: QVQLVQSGAEVKKPGASVKVSCKASGYTFTSHYIHWVRQAPGQGLEWMGIIKPSGGNTIYAQTFQGRVTMTRDTSTSTVYMELRSLTSDDTAVYYCARDQDHGLQRWGQGTLVTVSS VL: QSVLTQPPSVSAPPGQKVTISCSGSSSNIGNNFVSWYQQLPGTAPKLLIYDNIERPSGIPDRFSGSRSGTSATLGITGLQTGDEADYYCGTWDTSLGAWVFGGGTKVTVL', 'EC50', 0.0196);

Value source: patent US20250382354A1
